biological target: WEE1 (human) (UniProt P30291); assay: radiometric filter-binding kinase assay, Kinase HotSpot; conditions: compound 0.5 µM; ATP 10 µM
reported-property: residual activity (%)
State the answer as a number, implicitly in %.

Some entries whose results are on file:
[ask] Look at this molecule and give its reported residual activity. `COc1cc2ncnc(Nc3ccc(O)c(Br)c3)c2cc1OC`
[reply] 92.5

[ask] Quick one: residual activity for `O=c1c2ccccc2[nH]c(=S)n1CCN1CCC(=C(c2ccc(F)cc2)c2ccc(F)cc2)CC1` ?
[reply] 93

[ask] residual activity lookup needed for `N/C(=N\N=C/c1ccc(-c2cccc([N+](=O)[O-])c2)o1)N[N+](=O)[O-]` , thanks.
[reply] 100

***
[ask] Given the entry `c1ccc(-c2cnc(Nc3ccc(OCCN4CCCC4)cc3)s2)cc1` , report its measured residual activity.
[reply] 92

[ask] Name the reported residual activity value associated with the molecule `O=C(c1ccccc1)c1ccc(N2CCOCC2)cc1O`
[reply] 94.2

[ask] Entry `Cn1cc(/C=C2\C(=O)Nc3ccc(S(N)(=O)=O)cc32)c2ccccc21` : reported residual activity = ?
[reply] 82.3

[ask] What value of residual activity has been recorded for this entry: `CCc1nc(-c2ccc(OC)cc2)[nH]c1-c1ccncc1`
[reply] 89.1

[ask] Report residual activity for `N#CCCc1ccc2c(c1)-c1[nH]c3ccc([N+](=O)[O-])cc3c1CC(=O)N2` please.
[reply] 100

[ask] I'd like to know its residual activity. The molecule in question is `O=C1NC(=O)c2c1c1c3ccccc3[nH]c1c1[nH]c3cc(Br)ccc3c21`
[reply] 74.6

[ask] Quick check: residual activity of `COc1cccc(-c2cc(=O)c3ccccc3o2)c1N` ?
[reply] 83

[ask] // lookup residual activity for `O=C(O)c1ccc2c3c1cccc3c(=O)n1c3ccccc3nc21`
[reply] 84.6

[ask] For the molecule `Cc1cc(Nc2nc(-c3ccccc3)nc3ccccc23)n[nH]1` , what residual activity is on record?
[reply] 88

[ask] Give the measured residual activity of `O=c1c(-c2ccc(F)cc2)c(-c2ccncc2)[nH]n1-c1ccc(Cl)cc1` .
[reply] 81.6

* * *

molecular target: MYLK (human) (UniProt Q15746); experiment: radiometric filter-binding kinase assay, Kinase HotSpot; details: compound 0.5 µM; ATP 10 µM
Sequence (Q15746 whole entry, looked up): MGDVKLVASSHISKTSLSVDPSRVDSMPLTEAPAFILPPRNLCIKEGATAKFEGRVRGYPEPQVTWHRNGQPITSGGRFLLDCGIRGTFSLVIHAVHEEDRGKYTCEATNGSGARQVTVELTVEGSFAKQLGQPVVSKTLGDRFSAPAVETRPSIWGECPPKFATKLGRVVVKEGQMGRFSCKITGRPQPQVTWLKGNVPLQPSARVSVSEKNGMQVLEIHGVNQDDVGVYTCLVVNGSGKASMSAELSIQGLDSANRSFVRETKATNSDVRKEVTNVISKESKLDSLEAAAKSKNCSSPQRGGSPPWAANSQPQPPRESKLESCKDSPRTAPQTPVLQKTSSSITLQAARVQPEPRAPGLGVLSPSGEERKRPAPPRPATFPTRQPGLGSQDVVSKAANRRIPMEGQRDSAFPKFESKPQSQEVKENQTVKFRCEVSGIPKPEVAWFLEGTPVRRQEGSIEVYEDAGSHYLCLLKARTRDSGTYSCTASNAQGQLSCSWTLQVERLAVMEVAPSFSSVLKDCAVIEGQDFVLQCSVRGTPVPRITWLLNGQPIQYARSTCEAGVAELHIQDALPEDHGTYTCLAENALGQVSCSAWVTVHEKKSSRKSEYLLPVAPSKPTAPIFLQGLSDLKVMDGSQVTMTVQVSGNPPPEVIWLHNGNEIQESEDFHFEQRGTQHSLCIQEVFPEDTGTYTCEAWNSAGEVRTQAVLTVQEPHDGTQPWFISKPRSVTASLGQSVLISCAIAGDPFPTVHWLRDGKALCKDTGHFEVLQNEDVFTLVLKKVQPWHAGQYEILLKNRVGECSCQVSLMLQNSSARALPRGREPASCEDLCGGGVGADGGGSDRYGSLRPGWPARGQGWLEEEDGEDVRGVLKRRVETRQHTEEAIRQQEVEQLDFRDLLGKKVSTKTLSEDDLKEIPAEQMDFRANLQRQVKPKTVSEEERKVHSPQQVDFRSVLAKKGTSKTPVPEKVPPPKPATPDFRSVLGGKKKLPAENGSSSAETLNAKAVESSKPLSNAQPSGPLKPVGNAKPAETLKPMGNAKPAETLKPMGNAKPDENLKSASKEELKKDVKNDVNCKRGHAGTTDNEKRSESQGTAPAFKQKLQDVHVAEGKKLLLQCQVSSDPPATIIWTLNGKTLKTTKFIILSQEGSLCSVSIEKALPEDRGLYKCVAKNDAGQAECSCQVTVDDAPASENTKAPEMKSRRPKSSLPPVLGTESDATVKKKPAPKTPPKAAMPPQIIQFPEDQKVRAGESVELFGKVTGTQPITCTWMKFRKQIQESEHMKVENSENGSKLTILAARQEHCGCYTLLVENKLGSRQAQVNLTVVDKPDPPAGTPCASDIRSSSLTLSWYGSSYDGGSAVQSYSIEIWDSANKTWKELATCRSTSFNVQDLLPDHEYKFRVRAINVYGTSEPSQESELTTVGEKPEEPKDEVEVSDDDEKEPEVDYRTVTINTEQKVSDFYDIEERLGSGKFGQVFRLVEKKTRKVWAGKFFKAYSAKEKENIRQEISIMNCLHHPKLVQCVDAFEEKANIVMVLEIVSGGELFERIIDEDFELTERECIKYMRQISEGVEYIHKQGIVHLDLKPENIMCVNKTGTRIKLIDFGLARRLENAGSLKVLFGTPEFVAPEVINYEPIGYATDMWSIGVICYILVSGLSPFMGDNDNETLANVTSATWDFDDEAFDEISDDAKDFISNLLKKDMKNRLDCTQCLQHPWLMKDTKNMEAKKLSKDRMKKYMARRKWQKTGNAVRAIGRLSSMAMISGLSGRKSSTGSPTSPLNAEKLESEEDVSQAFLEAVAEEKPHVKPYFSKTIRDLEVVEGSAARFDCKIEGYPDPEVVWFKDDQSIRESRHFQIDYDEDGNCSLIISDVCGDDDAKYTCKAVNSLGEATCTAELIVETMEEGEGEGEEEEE
Recorded residual activity for the following molecules
Please don't drop the unit; write it after the number.

Here's what some known entries look like.
[ask] What measured residual activity goes with `N#Cc1c(NC(=O)c2cccc3ccccc23)sc2c1CCCC2` ?
[reply] 98.7%

[ask] What value of residual activity has been recorded for this entry: `CCc1nc(-c2ccc(OC)cc2)[nH]c1-c1ccncc1`
[reply] 104%

Proceeding to the next molecule to report its residual activity.
[ask] Entry `O=c1cc(N2CCOCC2)oc2c(-c3ccccc3)cccc12` : reported residual activity = ?
[reply] 97.8%

* * *

molecular target: CDK2 CCNE1 (human) (UniProt P24941+P24864); experiment: radiometric filter-binding kinase assay, Kinase HotSpot; conditions: compound 0.5 µM; ATP 10 µM
Sequence (P24864 whole entry, looked up, other chains not shown): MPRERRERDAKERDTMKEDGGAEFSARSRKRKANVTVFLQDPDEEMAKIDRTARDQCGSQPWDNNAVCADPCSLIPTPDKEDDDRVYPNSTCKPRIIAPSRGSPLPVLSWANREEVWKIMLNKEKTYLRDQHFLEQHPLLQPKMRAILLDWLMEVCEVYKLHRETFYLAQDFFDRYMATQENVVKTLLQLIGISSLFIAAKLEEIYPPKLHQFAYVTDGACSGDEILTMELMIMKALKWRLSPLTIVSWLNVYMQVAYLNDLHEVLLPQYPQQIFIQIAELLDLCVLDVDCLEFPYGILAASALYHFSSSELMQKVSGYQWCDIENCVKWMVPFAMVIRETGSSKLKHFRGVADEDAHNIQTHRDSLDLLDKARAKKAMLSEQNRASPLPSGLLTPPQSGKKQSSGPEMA
Here the recorded residual activity is given for each entry.
# output: bare number, implied unit %

[ask] So what does the record say about residual activity for `CCCCc1c(-c2ccc(O)cc2)[nH]c2nccnc12` ?
[reply] 29.9

[ask] Query (molecule): `COc1cc2c(Nc3ccc(Br)cc3F)ncnc2cc1OCC1CCN(C)CC1` ; field requested: residual activity
[reply] 101

More entries:
[ask] # query: residual activity of entry `N#CCCc1ccc2c(c1)-c1[nH]c3ccc([N+](=O)[O-])cc3c1CC(=O)N2`
[reply] 13.4

[ask] Give the measured residual activity of `O=C1NC(=O)c2c1c1c3ccccc3[nH]c1c1[nH]c3cc(Br)ccc3c21` .
[reply] 74.9

[ask] Which value of residual activity has been reported for `O=S(=O)(NCCNC/C=C/c1ccc(Br)cc1)c1cccc2cnccc12` in the records?
[reply] 99.3

[ask] I would be grateful if you could share the reported residual activity for `Cn1cc(/C=C2\C(=O)Nc3ccc(S(N)(=O)=O)cc32)c2ccccc21` .
[reply] 77.9

[ask] For the molecule shown here, `c1ccc(-c2cnc(Nc3ccc(OCCN4CCCC4)cc3)s2)cc1` , give the reported residual activity.
[reply] 85.7

* * *

biological target: CAMK1D (human); assay: radiometric filter-binding kinase assay, Kinase HotSpot; settings: compound 0.5 µM; ATP 10 µM
Listing of recorded residual activity by entry.
// note: answer is a bare numeric in %

See these solved cases before continuing.
[ask] What does the record list as residual activity for `COc1cc2ncnc(Nc3ccc(O)c(Br)c3)c2cc1OC` ?
[reply] 98.6

[ask] # lookup: residual activity of `N#C/C(=C1/Nc2ccccc2S1)c1ccnc(NCCc2cccnc2)n1`
[reply] 108

[ask] Request the reported residual activity associated with `COc1cccc(-c2cc(=O)c3ccccc3o2)c1N`
[reply] 65.3

[ask] So what's the measured residual activity for this one? `COc1cc2c(cc1OC)-c1[nH]nc(Nc3cccc(F)c3)c1C2`
[reply] 89.8

[ask] Requested read-out: residual activity. Entry: `O=C(c1ccccc1)c1ccc(N2CCOCC2)cc1O`
[reply] 99.1

Now for the compound whose residual activity we want.
[ask] Recorded residual activity for `O=c1cc(N2CCOCC2)oc2c(-c3ccccc3)cccc12` , please?
[reply] 47.9

* * *

target: CSNK1A1 (human) (UniProt P48729); test: radiometric filter-binding kinase assay, Kinase HotSpot; details: compound 0.5 µM; ATP 10 µM
Sequence (P48729 whole entry, looked up): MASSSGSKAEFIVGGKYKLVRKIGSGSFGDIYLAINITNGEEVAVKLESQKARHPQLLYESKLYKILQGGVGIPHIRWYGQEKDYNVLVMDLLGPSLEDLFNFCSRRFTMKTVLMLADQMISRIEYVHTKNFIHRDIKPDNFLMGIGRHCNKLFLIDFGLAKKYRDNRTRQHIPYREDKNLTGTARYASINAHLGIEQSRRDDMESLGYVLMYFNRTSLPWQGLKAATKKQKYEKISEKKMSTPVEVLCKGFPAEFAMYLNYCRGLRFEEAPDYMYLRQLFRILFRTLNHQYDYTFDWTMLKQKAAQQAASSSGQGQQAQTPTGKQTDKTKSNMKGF
// reported residual activity per item
The figure you give is taken to be in %; do not add the unit.

[ask] GET /values?readout=residual activity&item= `N#Cc1c(NC(=O)c2cccc3ccccc23)sc2c1CCCC2`
[reply] 91.1

Further cases:
[ask] Entry under review: `N/C(=N\N=C/c1ccc(-c2cccc([N+](=O)[O-])c2)o1)N[N+](=O)[O-]` . Reported residual activity?
[reply] 113

[ask] State the recorded residual activity for this entry: `CCOc1cc2ncnc(Nc3cccc(Br)c3)c2cc1OCC`
[reply] 98.6

* * *

Recorded measurements of residual activity, one per entry
target: UniProtKB Q9Y243; experiment: radiometric filter-binding kinase assay, Kinase HotSpot; settings: compound 0.5 µM; ATP 10 µM
Sequence (Q9Y243 whole entry, looked up): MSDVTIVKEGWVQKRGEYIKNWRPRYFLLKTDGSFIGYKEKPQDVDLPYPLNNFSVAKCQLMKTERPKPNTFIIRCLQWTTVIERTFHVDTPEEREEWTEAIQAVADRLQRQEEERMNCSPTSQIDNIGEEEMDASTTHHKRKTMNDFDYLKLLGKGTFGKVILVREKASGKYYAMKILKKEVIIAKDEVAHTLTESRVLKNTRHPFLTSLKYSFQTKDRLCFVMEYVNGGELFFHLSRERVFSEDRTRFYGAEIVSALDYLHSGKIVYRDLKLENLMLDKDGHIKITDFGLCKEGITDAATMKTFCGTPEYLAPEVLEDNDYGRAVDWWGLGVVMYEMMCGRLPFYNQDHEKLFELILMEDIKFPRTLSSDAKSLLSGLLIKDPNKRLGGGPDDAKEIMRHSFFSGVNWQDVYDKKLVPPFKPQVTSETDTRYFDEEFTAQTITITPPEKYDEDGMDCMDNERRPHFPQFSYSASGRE
Express your answer in %, writing the number without its unit.

Known residual activity results, listed for orientation:
[ask] What measured residual activity is associated with `O=c1c(-c2ccc(F)cc2)c(-c2ccncc2)[nH]n1-c1ccc(Cl)cc1` on UniProtKB Q9Y243?
[reply] 94.3

[ask] Query the reported residual activity for UniProtKB Q9Y243; item: `COc1cccc(-c2cc(=O)c3ccccc3o2)c1N`
[reply] 101

[ask] For the record `CN[C@@H]1C[C@H]2O[C@@](C)([C@@H]1OC)n1c3ccccc3c3c4c(c5c6ccccc6n2c5c31)C(=O)NC4` , what value of residual activity is listed for UniProtKB Q9Y243?
[reply] 2.97

[ask] Hi! What's the reported residual activity for `Cc1cc(Nc2nc(-c3ccccc3)nc3ccccc23)n[nH]1` on UniProtKB Q9Y243?
[reply] 95.5

[ask] Short answer please: residual activity, UniProtKB Q9Y243, entry `Nc1ncnc2c1cnn2-c1ccccc1`
[reply] 102

[ask] What reported residual activity corresponds to `O=c1c2ccccc2[nH]c(=S)n1CCN1CCC(=C(c2ccc(F)cc2)c2ccc(F)cc2)CC1` on UniProtKB Q9Y243?
[reply] 99.4

More entries:
[ask] Tell me reported residual activity for `O=C(c1ccccc1)c1ccc(N2CCOCC2)cc1O` , tested with UniProtKB Q9Y243.
[reply] 105

[ask] // fetch UniProtKB Q9Y243 residual activity for `N#Cc1c(NC(=O)c2cccc3ccccc23)sc2c1CCCC2`
[reply] 99.6

[ask] Please state recorded residual activity (tested on UniProtKB Q9Y243) of `Cn1cc(/C=C2\C(=O)Nc3ccc(S(N)(=O)=O)cc32)c2ccccc21`
[reply] 97.4

[ask] Short answer please: residual activity, UniProtKB Q9Y243, entry `O=C1NC(=O)c2cc(Nc3ccc(F)cc3)c(Nc3ccc(F)cc3)cc21`
[reply] 100

[ask] // fetch UniProtKB Q9Y243 residual activity for `N#C/C(=C1/Nc2ccccc2S1)c1ccnc(NCCc2cccnc2)n1`
[reply] 105

* * *

target: ERBB4 (human) (UniProt Q15303); assay: radiometric filter-binding kinase assay, Kinase HotSpot; conditions: compound 0.5 µM; ATP 10 µM
Sequence (Q15303 whole entry, looked up): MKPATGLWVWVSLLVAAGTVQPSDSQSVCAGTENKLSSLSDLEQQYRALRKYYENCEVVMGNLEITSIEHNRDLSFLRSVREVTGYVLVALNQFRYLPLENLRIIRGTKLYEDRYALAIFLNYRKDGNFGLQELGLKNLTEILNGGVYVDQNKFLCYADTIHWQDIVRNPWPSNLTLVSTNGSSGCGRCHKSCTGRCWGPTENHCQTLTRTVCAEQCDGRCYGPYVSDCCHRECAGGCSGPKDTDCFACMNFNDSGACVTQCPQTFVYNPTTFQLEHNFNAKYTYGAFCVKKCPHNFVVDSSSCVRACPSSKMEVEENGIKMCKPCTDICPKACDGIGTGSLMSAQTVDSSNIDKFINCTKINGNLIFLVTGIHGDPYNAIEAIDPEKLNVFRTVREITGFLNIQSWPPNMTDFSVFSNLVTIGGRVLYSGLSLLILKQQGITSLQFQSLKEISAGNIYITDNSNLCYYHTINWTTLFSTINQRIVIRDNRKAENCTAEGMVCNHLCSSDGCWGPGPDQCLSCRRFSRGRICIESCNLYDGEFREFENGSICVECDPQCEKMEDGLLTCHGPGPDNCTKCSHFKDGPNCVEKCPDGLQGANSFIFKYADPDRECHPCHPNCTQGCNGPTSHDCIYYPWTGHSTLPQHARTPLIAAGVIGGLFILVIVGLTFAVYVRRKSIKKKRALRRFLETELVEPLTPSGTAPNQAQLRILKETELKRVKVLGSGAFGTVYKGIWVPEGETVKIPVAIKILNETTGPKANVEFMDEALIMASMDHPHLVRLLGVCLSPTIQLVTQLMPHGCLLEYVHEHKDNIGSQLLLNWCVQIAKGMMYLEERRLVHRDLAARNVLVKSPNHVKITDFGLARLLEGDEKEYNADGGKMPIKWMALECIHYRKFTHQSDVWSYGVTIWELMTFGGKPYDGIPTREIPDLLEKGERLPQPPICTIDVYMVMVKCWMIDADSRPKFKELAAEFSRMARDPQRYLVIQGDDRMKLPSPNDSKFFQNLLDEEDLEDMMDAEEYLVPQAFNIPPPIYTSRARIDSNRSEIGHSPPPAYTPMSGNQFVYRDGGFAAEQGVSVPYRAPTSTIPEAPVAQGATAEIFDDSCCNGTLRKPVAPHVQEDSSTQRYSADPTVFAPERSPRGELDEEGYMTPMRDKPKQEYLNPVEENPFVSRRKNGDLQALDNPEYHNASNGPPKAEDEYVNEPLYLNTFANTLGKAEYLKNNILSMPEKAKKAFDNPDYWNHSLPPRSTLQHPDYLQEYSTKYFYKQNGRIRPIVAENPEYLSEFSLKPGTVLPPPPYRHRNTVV
Recorded measurements of residual activity, one per entry
Lab book: enter the figure in %, no units written.

Record excerpt, results attached:
[ask] Looking for the measured residual activity of `CCOc1cc2ncnc(Nc3cccc(Br)c3)c2cc1OCC` , can you help?
[reply] 34.3

[ask] If you can, please state the reported residual activity value of `CCc1nc(-c2ccc(OC)cc2)[nH]c1-c1ccncc1` .
[reply] 86.8

[ask] I would be grateful if you could share the reported residual activity for `Nc1ncnc2c1cnn2-c1ccccc1` .
[reply] 101

[ask] Record request: residual activity value, item `COc1cc2c(N3CCN(C(=O)Nc4ccc(OC(C)C)cc4)CC3)ncnc2cc1OCCCN1CCCCC1`
[reply] 97.3

[ask] // lookup residual activity for `COc1cc2ncnc(Nc3ccc(O)c(Br)c3)c2cc1OC`
[reply] 29.1

Consider the additional compound presented here.
[ask] Fill in the blank: the reported residual activity of `N#Cc1c(NC(=O)c2cccc3ccccc23)sc2c1CCCC2` is ____.
[reply] 99.8
